Recorded MFI at 33.3 nM by entry
- targetOfAssay: T1, human PD-L1 (human, UniProt Q9NZQ7 19-290)
- T1 construct: whole, on cells; also called huPD-L1
- T1 sequence (Q9NZQ7 19-290): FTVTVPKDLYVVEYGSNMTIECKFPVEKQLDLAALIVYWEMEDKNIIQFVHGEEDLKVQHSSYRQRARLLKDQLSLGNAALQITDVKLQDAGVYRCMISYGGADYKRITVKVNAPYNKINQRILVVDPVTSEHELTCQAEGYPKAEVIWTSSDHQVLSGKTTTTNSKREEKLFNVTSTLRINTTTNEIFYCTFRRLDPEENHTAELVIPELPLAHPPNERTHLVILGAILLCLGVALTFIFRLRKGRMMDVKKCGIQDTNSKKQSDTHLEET
- testProtocol: flow cytometry, CHO cells stably expressing huPD-L1, 33.3 nM, PE anti-human Fc
Entry rule: numbers only, all in MFI.

# binder, measureUnit, MFI at 33.3 nM
data = [
    ("E35D/M47L/V68M/A71G/L85Q/D90G CD80 IgV-Fc (Fc fusion, not shown: a dimerising Fc or GST) VIHVTKEVKEVATLSCGHNVSVEELAQTRIYWQKDKKMVLTMMSGDLNIWPEYKNRTIFDITNNLSIMILGLRPSDEGTYECVVQKYEKGAFKREHLAEVTLSVKAD", "MFI", 16800),
    ("CD80 WT IgV-Fc (Fc fusion, not shown: a dimerising Fc or GST, also called WT CD80-IgV-Fc; wild-type CD80 IgV-Fc) VIHVTKEVKEVATLSCGHNVSVEELAQTRIYWQKEKKMVLTMMSGDMNIWPEYKNRTIFDITNNLSIVILALRPSDEGTYECVVLKYEKDAFKREHLAEVTLSVKAD", "MFI", 83),
]

Sure, the documented MFI at 33.3 nM for H18Y/E35D/M47I/V68M/A71G/R94L CD80 IgV-Fc (Fc fusion, not shown: a dimerising Fc or GST) VIHVTKEVKEVATLSCGYNVSVEELAQTRIYWQKDKKMVLTMMSGDINIWPEYKNRTIFDITNNLSIMILGLRPSDEGTYECVVLKYEKDAFKLEHLAEVTLSVKAD is 14500

Lookup result for H18Y/V22A/E35D/T41S/M47V/T62N/A71G/A91G CD80 IgV-Fc (Fc fusion, not shown: a dimerising Fc or GST) VIHVTKEVKEVATLSCGYNVSAEELAQTRIYWQKDKKMVLSMMSGDVNIWPEYKNRTIFDINNNLSIVILGLRPSDEGTYECVVLKYEKDGFKREHLAEVTLSVKAD ; measured MFI at 33.3 nM: 8460
